tested_system: human NFS1 (Homo sapiens, UniProt Q9Y697)
Construct: His tag (N); made in house; host or cells: E. coli BL21(DE3)
Sequence (Q9Y697 56-457): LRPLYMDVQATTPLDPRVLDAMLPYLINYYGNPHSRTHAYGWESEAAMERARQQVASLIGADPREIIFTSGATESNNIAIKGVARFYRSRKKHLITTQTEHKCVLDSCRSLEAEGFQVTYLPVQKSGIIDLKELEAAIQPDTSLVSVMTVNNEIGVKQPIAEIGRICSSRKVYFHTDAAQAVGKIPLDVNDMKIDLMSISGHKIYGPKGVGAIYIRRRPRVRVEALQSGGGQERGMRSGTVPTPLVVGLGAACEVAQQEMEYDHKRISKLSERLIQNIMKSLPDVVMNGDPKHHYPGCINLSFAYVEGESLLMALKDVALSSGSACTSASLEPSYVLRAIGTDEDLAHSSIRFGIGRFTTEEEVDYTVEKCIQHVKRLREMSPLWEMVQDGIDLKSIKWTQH
protocol_text: NFS1 inhibition assay (H2S-producing, methylene blue)
Format: biochemical
assay_context: recombinant human NFS1Δ1-55, 1 mM cysteine, n = 4; read-out: IC50, NFS1 activity

{"compound": "COc1cc(/C=N\\NC(=O)Cc2nnc(NC(=O)c3ccc([N+](=O)[O-])cc3)s2)ccc1O [Compound 1]", "tested_system": "human NFS1 (Homo sapiens, UniProt Q9Y697)", "unit_name": "µM", "IC50": 153}
{"compound": "O=c1cc(-c2ccc(O)c(O)c2)oc2cc(O[C@H]3O[C@H](CO)[C@@H](O)[C@@H](O)[C@@H]3O)cc(O)c12 [Compound 37]", "tested_system": "human NFS1 (Homo sapiens, UniProt Q9Y697)", "unit_name": "µM", "IC50": 141}

###

tested_system: NFS1 K157A (Homo sapiens, UniProt Q9Y697, K157A)
Construct: His tag (N)
Sequence (Q9Y697 56-457 K157A): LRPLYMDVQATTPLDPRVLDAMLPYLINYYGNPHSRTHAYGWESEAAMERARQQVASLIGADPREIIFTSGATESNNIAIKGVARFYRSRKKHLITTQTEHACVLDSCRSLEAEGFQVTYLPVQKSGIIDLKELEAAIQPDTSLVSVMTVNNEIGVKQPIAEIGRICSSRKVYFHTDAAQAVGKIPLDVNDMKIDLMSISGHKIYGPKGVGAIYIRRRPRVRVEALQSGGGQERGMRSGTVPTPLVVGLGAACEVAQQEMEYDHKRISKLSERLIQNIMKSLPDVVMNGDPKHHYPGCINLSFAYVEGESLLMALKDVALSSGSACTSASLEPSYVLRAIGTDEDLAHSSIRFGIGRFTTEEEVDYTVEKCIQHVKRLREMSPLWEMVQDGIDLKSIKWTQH
protocol_text: H2S-producing assay, NFS1 K157A mutant
endpoint_name: IC50 (µM)

{"smiles": "COc1cc(/C=N/NC(=O)COc2ccc(Cl)cc2Cl)ccc1O", "endpoint_name": "IC50", "readout_value": 53.2}

###

tested_system: human NFS1 (Homo sapiens, UniProt Q9Y697)
Construct: His tag (N); made in house; host or cells: E. coli BL21(DE3)
protocol_text: NFS1 inhibition assay (H2S-producing, methylene blue)
Format: biochemical
pIC50: −log10 of the molar value.
endpoint_name: pIC50

{"smiles": "COc1cc(/C=N/NC(=O)COc2ccc(Cl)cc2Cl)ccc1O", "endpoint_name": "pIC50", "readout_value": 4.39}

###

tested_system: NFS1 E387A (Homo sapiens, UniProt Q9Y697, E387A)
Construct: His tag (N)
Sequence (Q9Y697 56-457 E387A): as the sequence (Q9Y697 56-457) above, with E332A counted along it
protocol_text: H2S-producing assay, NFS1 E387A mutant
endpoint_name: IC50 (µM)

{"smiles": "COc1cc(/C=N/NC(=O)COc2ccc(Cl)cc2Cl)ccc1O", "unit_name": "µM", "readout_value": 105}

###

Property: pIC50; scope: individual molecules
System: A549 cells
protocol_text: CCK-8 cell viability assay, A549
Assay type: cell-based, human
assay_context: Homo sapiens, A549; CCK-8, 72 h
pIC50: −log10 of the molar value.
endpoint_name: pIC50

{"molecule": "COc1cc(/C=N/NC(=O)COc2ccc(Cl)cc2Cl)ccc1O [Compound 53]", "readout_value": 4.79}
{"molecule": "COc1cc(/C=N/NC(=O)CSc2nnc(SCc3ccccc3)s2)cc(OC)c1O [Compound 56]", "readout_value": 4.56}

###

tested_system: human NFS1 (Homo sapiens, UniProt Q9Y697)

{"molecule": "COc1cc(/C=N/NC(=O)COc2ccc(Cl)cc2Cl)ccc1O [Compound 53]", "Ki / µM": 6.4}
